- Test system: gene editing with Cas9
- assay.overview: Screen of 322 new SSAP proteins, gene editing activity with Cas9 (Table 5)
- Assay type: cell-based
- condition.set: normalized
- Description: 322 new SSAP proteins were identified from sequence data, synthesized, and screened for activity with Cas9 and dCas9. Gene editing activities are shown below in Table 5, followed by amino acid sequences of the proteins.
measurement.kind: Cas9 with SSAP activity (normalized)
Write the number on its own, no unit after it.

{"columns": ["molecule", "numeric.readout"],
 "data": [
  ["SSAP_162: SEQ ID NO: 331; Helcococcus sueciensis (protein, listed as Helcococcus sueciensis) AQAKELLENKTNNTVKKSEKQTMENLLTLMADEIKKALPENVKSERFRRIALTAFNGNKDLQQCEPTSFLAAMMQSAQLGLEPNTPLGQAYLIPYNNSKKNIKEVQFQVGYKGMLDLAHRTNQYKNIQANIVYEKDEFDIEYGLNPKLKHIPNMKEDRGQAIGYYAVYNLINGGQGFEYMTRAEVEKHAQKFSKTYRNGPWQTDFDEMAKKTVLKKVLKYAPMSTELQEATAIDERVVNEENIKSKNEDKFVDVDWSYVDDVEEDVIE", 0.278]
]}

Please find the next molecule below.
## Task // Cas9 with SSAP activity (normalized) lookup, key: SSAP_5: SEQ ID NO: 174 (protein) ANELGIFSVDNLNMTTIKQYLDGGGKASDAELVLLINLCKQNNMNPFMKEVYFIKYGNQPAQIVVSRDFYRKRAFQNPNFVGIEVGVIVLNKDGVLEHNEGTFKTHEQELVGAWARVHLKNTEIPVYVAVSYDEYVQMKDGHPNKMWTNKPCTMLGKVAESQALRMAFPAEFSGTYGEEEYPEPEKEPREVNGVKEPDRAQIESFDKEDYAAKKIEELKEKAQPQKEVVEETGEVIDEEPLEGF
## Result −0.032
